# System: P. falciparum 3D7 in RBCs, SYBR Green DNA fluorescence
# procedure.details: growth inhibition of P. falciparum 3D7, dose response, 3D7 strain, red blood cells, SYBR Green, cherry-picked (AID 652047)
Measured AC35, listed per entry for reference.

Worked cases, AC35 given:
CC1=CC(C)(C)N(S(=O)(=O)c2ccc(C)cc2)c2ccc(C)cc21 : 22.3 µM
Cc1ccc(Nc2cc(C)nn2-c2nc(C)cc(C)n2)cc1 : 2.38 µM
CCCCCCSc1ccc(-c2nc3ccccn3c2NCCCC)cc1 : 12.2 µM

Prompt: Test system P. falciparum 3D7 in RBCs, SYBR Green DNA fluorescence; read-out AC35; what value for Cc1c(Cc2ccccc2)c(NCCN(C)C)n2c(nc3ccccc32)c1C#N ?
Completion: 7.32 µM

Prompt: Test system P. falciparum 3D7 in RBCs, SYBR Green DNA fluorescence; read-out AC35; what value for CCC(C)Sc1cccc(-c2nc3ccccn3c2NCc2ccccc2)c1 (configuration not stated) ?
Completion: 16.8 µM

Prompt: Test system P. falciparum 3D7 in RBCs, SYBR Green DNA fluorescence; read-out AC35; what value for Cc1ccc(NC(=S)c2nc3ccccc3[nH]2)c(C)c1 ?
Completion: 5.34 µM

Prompt: Test system P. falciparum 3D7 in RBCs, SYBR Green DNA fluorescence; read-out AC35; what value for Cc1ccc(Sc2cc(C)nc(-c3ccccn3)n2)cc1 ?
Completion: 3.19 µM
